Target: Human immunodeficiency virus type 1 integrase (Human immunodeficiency virus 1)
Sequence (Q7ZJM1 whole entry): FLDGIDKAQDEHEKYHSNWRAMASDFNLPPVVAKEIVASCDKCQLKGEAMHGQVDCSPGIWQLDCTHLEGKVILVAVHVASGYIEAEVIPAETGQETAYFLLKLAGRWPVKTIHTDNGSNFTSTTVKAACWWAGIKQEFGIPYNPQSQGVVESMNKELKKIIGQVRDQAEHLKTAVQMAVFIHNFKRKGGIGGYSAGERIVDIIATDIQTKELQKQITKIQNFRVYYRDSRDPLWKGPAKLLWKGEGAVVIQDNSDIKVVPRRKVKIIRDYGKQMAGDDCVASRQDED
Could you please mark T for values of IC50 below 1000 nM and F for values at or above it?

INSERT INTO assay_data (smiles_str, study_target, cat) VALUES
  ('CCOC(=O)/C(O)=C/C(=O)c1cn(Cc2ccc(F)cc2Cl)c2cccc(OC)c12', 'Human immunodeficiency virus type 1 integrase (Human immunodeficiency virus 1)', 'F'),
  ('CCOC(=O)/C(O)=C/C(=O)c1cn(Cc2ccc(F)c(Cl)c2)c2cccc(OC)c12', 'Human immunodeficiency virus type 1 integrase (Human immunodeficiency virus 1)', 'T'),
  ('CCOC(=O)/C(O)=C/C(=O)c1cn(Cc2ccc(Cl)cc2F)c2cccc(OC)c12', 'Human immunodeficiency virus type 1 integrase (Human immunodeficiency virus 1)', 'F'),
  ('COc1cccc2c1c(C(=O)/C=C(\O)C(=O)O)cn2Cc1cc(F)ccc1Cl', 'Human immunodeficiency virus type 1 integrase (Human immunodeficiency virus 1)', 'T'),
  ('CCOC(=O)/C(O)=C/C(=O)c1cn(Cc2cc(F)cc(Cl)c2)c2cccc(OC)c12', 'Human immunodeficiency virus type 1 integrase (Human immunodeficiency virus 1)', 'F');

###

Attribute: EC50
Test system: MT4
Experiment: Cytotoxicity against human MT4 cells by MTT assay
Assay type: cell-based
quantity.kind: EC50 (µM)

INSERT INTO measurements (smiles_str, number) VALUES
  ('CCOC(=O)/C(O)=C/C(=O)c1cn(Cc2ccc(F)c(Cl)c2)c2cccc(OC)c12', 49.3),
  ('COc1cccc2c1c(C(=O)/C=C(\O)C(=O)O)cn2Cc1cccc(Cl)c1F', 15),
  ('COc1cccc2c1c(C(=O)/C=C(\O)C(=O)O)cn2Cc1cc(F)cc(Cl)c1', 32.1),
  ('CCOC(=O)/C(O)=C/C(=O)c1cn(Cc2cc(Cl)ccc2F)c2cccc(OC)c12', 18.1),
  ('CCOC(=O)/C(O)=C/C(=O)c1cn(Cc2cc(F)cc(Cl)c2)c2cccc(OC)c12', 58.2),
  ('COc1cccc2c1c(C(=O)/C=C(\O)C(=O)O)cn2Cc1cc(Cl)ccc1F', 10.8),
  ('CCOC(=O)/C(O)=C/C(=O)c1cn(Cc2cccc(F)c2Cl)c2cccc(OC)c12', 18.5),
  ('COc1cccc2c1c(C(=O)/C=C(\O)C(=O)O)cn2Cc1cc(F)ccc1Cl', 26.3),
  ('COc1cccc2c1c(C(=O)/C=C(\O)C(=O)O)cn2Cc1ccccc1Cl', 27),
  ('CCOC(=O)/C(O)=C/C(=O)c1cn(Cc2c(F)cccc2Cl)c2cccc(OC)c12', 25.4);

###

Assay: Selectivity index, ratio of CC50 for human MT4 cells to EC50 for HIV1 cells
Type: toxicity, cell-based
Conditions: read-out: Selectivity Index
quantity.kind: selectivity ratio

INSERT INTO assay_data (smiles_str, rel, number) VALUES
  ('CCOC(=O)/C(O)=C/C(=O)c1cn(Cc2cccc(F)c2Cl)c2cccc(OC)c12', '=', 7),
  ('CCOC(=O)/C(O)=C/C(=O)c1cn(Cc2cccc(Cl)c2)c2cccc(OC)c12', '=', 17),
  ('CCOC(=O)/C(O)=C/C(=O)c1cn(Cc2cccc(Cl)c2F)c2cccc(OC)c12', '=', 20),
  ('COc1cccc2c1c(C(=O)/C=C(\O)C(=O)O)cn2Cc1c(F)cccc1Cl', '=', 111),
  ('COc1cccc2c1c(C(=O)/C=C(\O)C(=O)O)cn2Cc1ccc(Cl)c(F)c1', '<', 1);

###

Assay: Selectivity index, ratio of CC50 for human MT4 cells to EC50 for HIV1 cells
Format: toxicity, cell-based
Conditions: read-out: Selectivity Index
Label criterion met when selectivity ratio >= 8; otherwise criterion not met.

INSERT INTO assay_data (smiles_str, cat) VALUES
  ('CCOC(=O)/C(O)=C/C(=O)c1cn(Cc2cc(Cl)ccc2F)c2cccc(OC)c12', 'criterion not met'),
  ('COc1cccc2c1c(C(=O)/C=C(\O)C(=O)O)cn2Cc1cccc(Cl)c1', 'criterion met'),
  ('CCOC(=O)/C(O)=C/C(=O)c1cn(Cc2cc(F)cc(Cl)c2)c2cccc(OC)c12', 'criterion met'),
  ('COc1cccc2c1c(C(=O)/C=C(\O)C(=O)O)cn2Cc1ccc(Cl)cc1F', 'criterion not met'),
  ('CCOC(=O)/C(O)=C/C(=O)c1cn(Cc2ccc(Cl)c(F)c2)c2cccc(OC)c12', 'criterion not met'),
  ('COc1cccc2c1c(C(=O)/C=C(\O)C(=O)O)cn2Cc1ccc(F)cc1Cl', 'criterion met'),
  ('COc1cccc2c1c(C(=O)/C=C(\O)C(=O)O)cn2Cc1ccccc1Cl', 'criterion met'),
  ('CCOC(=O)/C(O)=C/C(=O)c1cn(Cc2c(F)cccc2Cl)c2cccc(OC)c12', 'criterion not met'),
  ('CCOC(=O)/C(O)=C/C(=O)c1cn(Cc2ccc(F)cc2Cl)c2cccc(OC)c12', 'criterion met');
